target: Human immunodeficiency virus type 1 integrase (Human immunodeficiency virus 1, UniProt Q7ZJM1); assay: Inhibition of HIV1 recombinant integrase
Sequence (Q7ZJM1 whole entry): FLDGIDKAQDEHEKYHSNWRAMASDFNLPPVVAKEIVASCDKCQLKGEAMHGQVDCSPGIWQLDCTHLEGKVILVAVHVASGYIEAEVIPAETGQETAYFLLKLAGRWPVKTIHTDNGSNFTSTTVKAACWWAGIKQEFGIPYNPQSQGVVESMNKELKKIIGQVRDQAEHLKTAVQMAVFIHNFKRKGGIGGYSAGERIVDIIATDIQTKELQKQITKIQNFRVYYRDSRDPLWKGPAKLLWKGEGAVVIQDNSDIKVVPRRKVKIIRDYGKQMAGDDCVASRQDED
pIC50: −log10 of the molar value. Structures can show the parent of a compound that is named as a salt.
QUANTITY: pIC50

O=S(=O)(O)OCC(O)C#CC#CCCCCCCC#C/C=C/Br (stereo not drawn)	4.13
O=S(=O)(O)OCC(O)C#CC#CCCCCCCCC/C=C/Br (stereo not drawn) [DIPLYNE C SULFATE]	4.13

Task item: Consider the molecule shown here: OCC(O)C#CC#CCCCC/C=C/C#C/C=C/Br (stereo not drawn) [DIPLYNE E] What is its recorded pIC50?
Reply: < 3.81

Task item: Repeat with OCC(O)C#CC#CCCCCCCC#C/C=C\Br (stereo not drawn) [DIPLYNE B]
Reply: < 3.81

Task item: Repeat with OCC(O)C#CC#CCCCCCCC#C/C=C/Br (stereo not drawn) [DIPLYNE A]
Reply: < 3.81

Task item: Repeat with OCC(O)C#CC#CCCCCCCCC/C=C/Br (stereo not drawn) [DIPLYNE C]
Reply: < 3.82

Task item: Repeat with OCC(O)C#CC#CCCCCC#CC#C/C=C/Br (stereo not drawn) [DIPLYNE D]
Reply: < 3.81

Task item: Repeat with O=S(=O)(O)OCCC#CC#CCCCCC#CC#C/C=C/Br
Reply: 4.11
